Molecular target: streptavidin C2 (Streptomyces virginiae, UniProt A0ABQ3NKS0)
Sequence (A0ABQ3NKS0 28-186): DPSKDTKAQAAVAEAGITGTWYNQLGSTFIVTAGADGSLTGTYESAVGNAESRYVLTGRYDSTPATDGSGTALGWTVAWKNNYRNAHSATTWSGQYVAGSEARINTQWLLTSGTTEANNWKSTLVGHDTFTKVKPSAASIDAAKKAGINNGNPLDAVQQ
pKd: −log10 of the molar value.
result type: pKd

input smiles	obs value
O=C(O)CCCC[C@@H]1SC[C@@H]2NC(=O)N[C@@H]21	11.51

----------
Target: streptavidin C1 (Streptomyces virginiae, UniProt A0ABQ3NKM7)
result type: Kd

compound	obs value
O=C(O)CCCC[C@@H]1SC[C@@H]2NC(=O)N[C@@H]21 [D-biotin]	~3.06 pM
